target: Dopamine D3 (Homo sapiens (Human)); test: Dopamine D3 binding
pKi: −log10 of the molar value.
observationType: pKi

chemicalstring=Cc1ccc2c(c1)Oc1sc(Cl)cc1C(N1CCN(CC(C)(C)C(=O)O)CC1)=N2 measurement="< 5.26"

---

target: Dopamine D3 (Homo sapiens (Human), UniProt P35462); test: Dopamine D3 binding; conditions: dihydrochloride
Sequence (P35462 whole entry): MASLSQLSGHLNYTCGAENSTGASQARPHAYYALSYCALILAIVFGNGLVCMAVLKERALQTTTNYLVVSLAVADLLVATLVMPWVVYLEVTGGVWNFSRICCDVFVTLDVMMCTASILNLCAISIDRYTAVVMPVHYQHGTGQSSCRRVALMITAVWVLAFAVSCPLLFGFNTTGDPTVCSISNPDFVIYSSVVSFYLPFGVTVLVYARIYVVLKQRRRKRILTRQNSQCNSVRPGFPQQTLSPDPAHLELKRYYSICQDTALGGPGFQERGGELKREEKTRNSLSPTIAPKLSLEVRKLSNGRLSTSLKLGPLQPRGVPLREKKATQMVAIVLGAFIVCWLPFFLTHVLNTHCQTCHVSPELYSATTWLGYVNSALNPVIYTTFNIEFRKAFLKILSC
pKi: −log10 of the molar value. Structures can show the parent of a compound that is named as a salt.
observationType: pKi

compound="Cc1ccc2c(c1)Oc1sc(Cl)cc1C(N1CCN(CC(C)(C)C(=O)O)CC1)=N2 [Example 3, dihydrochloride]" measurement="< 5.25"

---

molecular target: recombinant 5-HT2A receptor (human) (Homo sapiens (Human), UniProt P28223); assay: 5-HT2A competition binding assay ([3H]-Ketanserin, SPA)
observationType: Ki (nM)

chemicalstring=Cc1ccc2c(c1)Oc1sc(Cl)cc1C(N1CCN(CC(C)(C)C(=O)O)CC1)=N2 measurement=3.37

---

molecular target: 5-HT1D (Homo sapiens (Human), UniProt P28221)
Sequence (P28221 whole entry, species assumed): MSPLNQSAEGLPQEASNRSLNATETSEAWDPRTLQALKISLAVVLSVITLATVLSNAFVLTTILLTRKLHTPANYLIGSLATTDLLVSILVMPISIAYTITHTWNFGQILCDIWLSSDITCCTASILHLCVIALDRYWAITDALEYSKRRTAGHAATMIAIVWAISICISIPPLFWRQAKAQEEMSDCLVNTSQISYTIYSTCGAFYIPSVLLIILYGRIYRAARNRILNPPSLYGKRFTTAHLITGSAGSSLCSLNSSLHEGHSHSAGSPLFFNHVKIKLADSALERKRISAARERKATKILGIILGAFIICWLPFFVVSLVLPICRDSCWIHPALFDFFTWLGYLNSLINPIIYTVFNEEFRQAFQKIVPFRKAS
Structures can show the parent of a compound that is named as a salt.
observationType: Ki

compound="Cc1ccc2c(c1)Oc1sc(Cl)cc1C(N1CCN(CC(C)(C)C(=O)O)CC1)=N2 [Example 3, dihydrochloride]" measurement="> 3.98 µM"

---

assay: Plasma clearance in rat (intravenous); format: in vivo; conditions: male, Sprague Dawley, rat, plasma, iv, 1 mg/kg, read-out: Clearance
observationType: clearance (mL/min/kg)

chemicalstring=Cc1ccc2c(c1)Oc1sc(Cl)cc1C(N1CCN(CC(C)(C)C(=O)O)CC1)=N2 measurement=14.1

---

molecular target: Dopamine D2 (Homo sapiens (Human)); experiment: Dopamine D2 binding; conditions: dihydrochloride
Sequence (P14416 whole entry): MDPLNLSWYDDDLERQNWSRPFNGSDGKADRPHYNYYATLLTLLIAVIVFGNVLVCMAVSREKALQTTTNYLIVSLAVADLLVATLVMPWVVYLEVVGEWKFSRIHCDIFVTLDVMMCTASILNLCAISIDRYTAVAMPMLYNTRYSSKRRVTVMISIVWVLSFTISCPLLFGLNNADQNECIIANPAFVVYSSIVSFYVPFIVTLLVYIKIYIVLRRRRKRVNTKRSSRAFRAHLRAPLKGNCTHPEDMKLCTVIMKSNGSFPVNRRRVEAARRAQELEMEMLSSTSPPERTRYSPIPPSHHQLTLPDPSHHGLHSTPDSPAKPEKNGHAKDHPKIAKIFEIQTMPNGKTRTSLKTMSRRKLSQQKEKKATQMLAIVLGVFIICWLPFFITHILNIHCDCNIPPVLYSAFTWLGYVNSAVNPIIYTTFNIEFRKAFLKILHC
pKi: −log10 of the molar value. Structures can show the parent of a compound that is named as a salt.
observationType: pKi

compound="Cc1ccc2c(c1)Oc1sc(Cl)cc1C(N1CCN(CC(C)(C)C(=O)O)CC1)=N2 [Example 3, dihydrochloride]" measurement="< 5.34"

---

target: Adrenergic alpha1A (Homo sapiens (Human), UniProt P35348)
Sequence (P35348 whole entry): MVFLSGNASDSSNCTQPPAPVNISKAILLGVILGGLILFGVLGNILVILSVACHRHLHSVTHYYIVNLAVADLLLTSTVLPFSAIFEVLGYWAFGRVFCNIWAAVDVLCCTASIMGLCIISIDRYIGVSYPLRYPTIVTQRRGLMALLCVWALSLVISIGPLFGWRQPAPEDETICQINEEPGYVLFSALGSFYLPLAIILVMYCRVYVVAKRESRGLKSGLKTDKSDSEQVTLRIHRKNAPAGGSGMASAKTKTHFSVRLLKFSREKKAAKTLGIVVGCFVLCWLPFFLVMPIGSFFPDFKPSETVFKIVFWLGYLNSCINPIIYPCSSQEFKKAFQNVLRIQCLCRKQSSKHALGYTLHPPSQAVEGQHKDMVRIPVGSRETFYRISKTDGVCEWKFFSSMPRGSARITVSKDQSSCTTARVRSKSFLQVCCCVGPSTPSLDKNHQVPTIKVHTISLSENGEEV
pKi: −log10 of the molar value. Where a name gives a salt, the structure may show the parent alone.
observationType: pKi

molecule="Cc1ccc2c(c1)Oc1sc(Cl)cc1C(N1CCN(CC(C)(C)C(=O)O)CC1)=N2 [Example 3, dihydrochloride]" studysystem="Adrenergic alpha1A (Homo sapiens (Human), UniProt P35348)" measurement="< 4.99"

---

target: 5-HT2B (Homo sapiens (Human))
Sequence (P41595 whole entry, species assumed): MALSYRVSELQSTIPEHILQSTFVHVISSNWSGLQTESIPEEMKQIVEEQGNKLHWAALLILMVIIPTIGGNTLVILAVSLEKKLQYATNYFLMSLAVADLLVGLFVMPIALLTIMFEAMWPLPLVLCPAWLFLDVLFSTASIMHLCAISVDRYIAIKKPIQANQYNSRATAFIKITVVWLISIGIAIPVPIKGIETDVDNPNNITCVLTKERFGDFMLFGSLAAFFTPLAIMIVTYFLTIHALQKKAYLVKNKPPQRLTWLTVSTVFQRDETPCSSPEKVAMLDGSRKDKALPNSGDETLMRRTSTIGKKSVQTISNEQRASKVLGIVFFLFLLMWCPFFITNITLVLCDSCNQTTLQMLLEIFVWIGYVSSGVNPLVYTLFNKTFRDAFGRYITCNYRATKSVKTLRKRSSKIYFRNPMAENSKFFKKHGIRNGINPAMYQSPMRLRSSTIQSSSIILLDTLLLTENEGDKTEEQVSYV
pKi: −log10 of the molar value. Where a name gives a salt, the structure may show the parent alone.
observationType: pKi

molecule="Cc1ccc2c(c1)Oc1sc(Cl)cc1C(N1CCN(CC(C)(C)C(=O)O)CC1)=N2 [Example 3, dihydrochloride]" measurement=6.92

---

target: human recombinant H1 receptor (Homo sapiens (Human)); test: H1 competition binding assay ([3H]-Pyrilamine, SPA); settings: dihydrochloride
Sequence (P35367 whole entry): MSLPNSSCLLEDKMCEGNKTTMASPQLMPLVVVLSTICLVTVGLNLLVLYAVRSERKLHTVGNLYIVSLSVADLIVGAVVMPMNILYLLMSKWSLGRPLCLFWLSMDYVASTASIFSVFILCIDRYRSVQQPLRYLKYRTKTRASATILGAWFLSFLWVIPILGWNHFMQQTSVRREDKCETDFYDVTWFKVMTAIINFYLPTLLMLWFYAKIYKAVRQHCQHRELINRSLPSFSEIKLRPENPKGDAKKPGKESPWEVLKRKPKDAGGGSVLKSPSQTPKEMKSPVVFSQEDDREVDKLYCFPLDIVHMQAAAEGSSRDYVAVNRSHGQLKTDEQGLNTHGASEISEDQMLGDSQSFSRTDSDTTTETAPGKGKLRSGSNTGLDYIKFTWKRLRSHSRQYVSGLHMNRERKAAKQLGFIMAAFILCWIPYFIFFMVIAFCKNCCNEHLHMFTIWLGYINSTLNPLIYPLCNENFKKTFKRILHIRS
Structures can show the parent of a compound that is named as a salt.
observationType: Ki (nM)

compound="Cc1ccc2c(c1)Oc1sc(Cl)cc1C(N1CCN(CC(C)(C)C(=O)O)CC1)=N2 [Example 3, dihydrochloride]" studysystem="human recombinant H1 receptor (Homo sapiens (Human))" measurement=58.8

---

target: Adrenergic alpha1B (Homo sapiens (Human))
Sequence (P35368 whole entry): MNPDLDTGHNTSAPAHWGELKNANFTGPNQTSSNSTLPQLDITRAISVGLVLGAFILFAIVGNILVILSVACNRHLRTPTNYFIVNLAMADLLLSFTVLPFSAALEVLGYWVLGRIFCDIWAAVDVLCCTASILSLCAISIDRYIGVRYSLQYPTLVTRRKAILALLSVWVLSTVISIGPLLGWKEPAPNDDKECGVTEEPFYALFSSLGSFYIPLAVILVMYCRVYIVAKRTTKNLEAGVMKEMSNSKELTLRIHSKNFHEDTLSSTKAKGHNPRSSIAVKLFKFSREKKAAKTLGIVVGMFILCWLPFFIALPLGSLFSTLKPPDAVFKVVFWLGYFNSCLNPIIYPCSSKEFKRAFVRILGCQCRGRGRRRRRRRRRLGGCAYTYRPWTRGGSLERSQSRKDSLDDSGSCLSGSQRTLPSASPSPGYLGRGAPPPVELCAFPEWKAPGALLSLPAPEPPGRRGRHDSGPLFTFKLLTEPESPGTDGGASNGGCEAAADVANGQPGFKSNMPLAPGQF
Counter-ions that a name gives are not always drawn.
observationType: Ki

compound="Cc1ccc2c(c1)Oc1sc(Cl)cc1C(N1CCN(CC(C)(C)C(=O)O)CC1)=N2 [Example 3, dihydrochloride]" observationtype=Ki measurement="> 14.7 µM"
